system: Mycobacterium tuberculosis; assay: Compound was tested in vitro for growth inhibition activity against Mycobacterium tuberculosis H37Rv in Bactec 12B media.; type: functional
quantity name: MIC (µM)
Give the number; µM is assumed, so skip it.

Consider the reported MIC for these compounds:
# smiles str, target desc, MIC (µM)
measured = [
    ("NCCOB(c1ccccc1)c1ccccc1", "Mycobacterium tuberculosis", 285),
    ("O=C1Nc2ccccc2B(O)N1c1ccccc1", "Mycobacterium tuberculosis", 67.2),
    ("Cc1ccc(S(=O)(=O)N2N=Cc3ccccc3B2O)cc1", "Mycobacterium tuberculosis", 320),
]

In the following, a different compound is considered.
So what does the record say about MIC for OB1c2ccccc2N=C(S)N1c1cccnc1 ?
63

---

tested on: Mycobacterium tuberculosis; assay: Compound was tested in vitro for growth inhibition activity against Mycobacterium tuberculosis H37Rv in Bactec 12B media.; format: functional
quantity name: MIC

Consider the reported MIC for these molecules:
# molecule, target desc, quantity name, recorded measurement
rows = [
    ("CCCCN1B(O)c2ccccc2NC1=O", "Mycobacterium tuberculosis", "MIC", "> 587 µM"),
    ("OB1N=C(c2cnccn2)Nc2ccccc21", "Mycobacterium tuberculosis", "MIC", "> 572 µM"),
    ("NNC(=O)c1ccncc1", "Mycobacterium tuberculosis", "MIC", "< 0.16 µM"),
]

In the following, a different molecule is considered.
So what does the record say about MIC for NC(=O)c1cnccn1 [PYRAZINAMIDE] ?
> 1600 µM
